Cited source: the RNAGym collection of RNA variant scans (doi:10.7554/elife.90254)

B1: LINE1-full (parent)
chain: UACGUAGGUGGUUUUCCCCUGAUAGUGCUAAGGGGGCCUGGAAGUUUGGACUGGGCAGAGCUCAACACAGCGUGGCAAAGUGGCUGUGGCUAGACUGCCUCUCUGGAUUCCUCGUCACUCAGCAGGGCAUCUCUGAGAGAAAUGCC

Variants of: B1
MEASUREMENT_PROTOCOL: self-cleavage, relative activity (ratio to wild type); higher = more cleavage; in vitro, sequencing; the parent is a self-cleaving ribozyme
MEASUREMENT_NAME: self-cleavage
Please state the value as a number alone, without comment.

Request: Give its self-cleavage value. Item: U26A U109C
Result: 0.95

Request: Give its self-cleavage value. Item: C16A U20A
Result: 1.64

Request: Give its self-cleavage value. Item: G54A A107G
Result: 0.47

Request: Give its self-cleavage value. Item: U87G A141G
Result: 0

Request: Give its self-cleavage value. Item: C84U U119C
Result: 0.12
